experiment.summary: Single dose oral pharmacokinetic study in mice
Assay type: in vivo
condition.info: mouse, plasma; Oral PK @ 30 mg/ kg dose in mice (Table 6)
Description: The test item was administered through oral route to animals (rat/mice) at 30 mg/kg dose in a suitable vehicle at 10 ml/kg dose volume. Blood samples (˜50 uL at each time point) were collected from retro-orbital plexus using K3 EDTA as anticoagulant in eppendorf tubes at defined time intervals under light ether anesthesia. […] Sample analysis: Test samples were analyzed using LC-MS-MS after developing fit-for-purpose method for each of test compound.
Can you tell me Tmax for the items I'm about to list?

Q. Which measured Tmax value corresponds to "CC1([C@@H]2CC[C@]3(C(=O)N4CCC(C(=O)NCCN5CCOCC5)CC4)CC[C@]4(C)[C@H](CC[C@@H]5[C@@]6(C)CC[C@H](OC(=O)[C@H]7C[C@@H](C(=O)O)C7(C)C)C(C)(C)[C@@H]6CC[C@]54C)[C@@H]23)CC1" ?
A. 6 h

Q. So what's the measured Tmax for this one? "COCCOC1CCN(C(=O)[C@]23CC[C@@H](C4(C)CC4)[C@@H]2[C@H]2CC[C@@H]4[C@@]5(C)CC[C@H](OC(=O)CC(C)(C)C(=O)O)C(C)(C)[C@@H]5CC[C@@]4(C)[C@]2(C)CC3)CC1"
A. 6.5 h

Q. // returns reported Tmax for input "CC1([C@@H]2CC[C@]3(C(=O)N4CCOCC4)CC[C@]4(C)[C@H](CC[C@@H]5[C@@]6(C)CC[C@H](OC(=O)[C@H]7C[C@@H](C(=O)O)C7(C)C)C(C)(C)[C@@H]6CC[C@]54C)[C@@H]23)CC1"
A. 16 h

Q. Which Tmax is listed for "CC(C)(CC(=O)O[C@H]1CC[C@]2(C)[C@H]3CC[C@@H]4[C@H]5[C@H](C6(C)CC6)CC[C@]5(C(=O)N5CCOCC5)CC[C@@]4(C)[C@]3(C)CC[C@H]2C1(C)C)C(=O)O" ?
A. 3.5 h

Q. Which value of Tmax has been reported for "CC(C)(CC(=O)O[C@H]1CC[C@]2(C)[C@H]3CC[C@@H]4[C@H]5[C@H](C6(C)CC6)CC[C@]5(C(=O)N5CCC(C(=O)NCCN6CCOCC6)CC5)CC[C@@]4(C)[C@]3(C)CC[C@H]2C1(C)C)C(=O)O" in the records?
A. 1.3 h

* * *

experiment.summary: Cyto-toxicity assay (MTT) in MT2 cells without virus
Format: cell-based
condition.info: human
assay.metric: viability at 100 nM (%)
Write it as a number; the unit % goes unstated.

Q. Please give the measured viability at 100 nM for this molecule: COCCOCCOC1CCN(C(=O)[C@]23CC[C@@H](C4(C)CC4)[C@@H]2[C@H]2CC[C@@H]4[C@@]5(C)CC[C@H](OC(=O)CC(C)(C)C(=O)O)C(C)(C)[C@@H]5CC[C@@]4(C)[C@]2(C)CC3)CC1 [Example 43]
A. 100

Q. Record request: viability at 100 nM value, item CCN1CCN(C(=O)[C@]23CC[C@@H](C4(C)CC4)[C@@H]2[C@H]2CC[C@@H]4[C@@]5(C)CC[C@H](OC(=O)CC(C)(C)CC(=O)O)C(C)(C)[C@@H]5CC[C@@]4(C)[C@]2(C)CC3)CC1 [Example 26]
A. 100

Q. What does the data say about its viability at 100 nM? Entry: CC1([C@@H]2CC[C@]3(C(=O)N4CCN(CCN5CCOCC5)CC4)CC[C@]4(C)[C@H](CC[C@@H]5[C@@]6(C)CC[C@H](OC(=O)[C@H]7C[C@@H](C(=O)O)C7(C)C)C(C)(C)[C@@H]6CC[C@]54C)[C@@H]23)CC1 [Example 32]
A. 100

Q. viability at 100 nM for [2H]C([2H])([2H])C(CC(=O)O[C@H]1CC[C@]2(C)[C@H]3CC[C@@H]4[C@H]5[C@H](C(=C)C)CC[C@]5(C(=O)N5CCN(CC)CC5)CC[C@@]4(C)[C@]3(C)CC[C@H]2C1(C)C)(C(=O)O)C([2H])([2H])[2H] [Example 25] ?
A. 100

Q. Request the reported viability at 100 nM associated with CC(C)(CC(=O)O[C@H]1CC[C@]2(C)[C@H]3CC[C@@H]4[C@H]5[C@H](C6(C)CC6)CC[C@]5(C(=O)N5CCN(C(=O)C(C)(CO)CO)CC5)CC[C@@]4(C)[C@]3(C)CC[C@H]2C1(C)C)C(=O)O [Example 35]
A. 70
